- system-tested: Human PKMYT1 (Homo sapiens, UniProt Q99640)
- Construct: Human PKMYT1 75-362 was cloned as a TEV cleavable 6xHis fusion; 6xHis (TEV cleavable) (cleaved yes); made in house; host or cells: bacterial cells
- Sequence (Q99640 75-362): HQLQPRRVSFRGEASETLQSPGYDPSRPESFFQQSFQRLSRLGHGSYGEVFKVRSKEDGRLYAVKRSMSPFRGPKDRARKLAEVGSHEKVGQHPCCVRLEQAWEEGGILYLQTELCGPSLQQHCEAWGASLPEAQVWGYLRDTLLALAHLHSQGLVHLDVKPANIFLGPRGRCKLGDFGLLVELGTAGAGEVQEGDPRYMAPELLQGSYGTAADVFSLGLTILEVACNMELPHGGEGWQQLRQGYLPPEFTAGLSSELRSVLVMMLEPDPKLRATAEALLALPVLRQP
- measurement-notes: PKMYT1 biochemical ADP-Glo enzymatic assay
- measurement-parameters: ADP-Glo; 15 nM PKMYT1 kinase domain, 500 µM ATP, 60 minutes at 26° C.; banded
pIC50: −log10 of the molar value. Counter-ions that a name gives are not always drawn.
Listing of entries alongside the reported pIC50.

These recorded examples may help you get a feel for the data.
Looking for the measured pIC50 of Cc1ccc(O)c(C)c1NC(=O)c1cnc(Nc2ccn(CC(=O)NCCN(C)C)n2)s1 [BAA-160, (hydrochloride)] , can you help? 6.00 to 7.30

Looking for the measured pIC50 of Cc1ccc(O)c(C)c1NC(=O)c1cnc(Nc2ccn(CC(=O)NC3CC3)n2)s1 [BAA-190] , can you help? > 7.30

***
Looking for the measured pIC50 of Cc1ccc(O)c(C)c1NC(=O)c1cnc(Nc2ccn(CC(=O)N3CCN(C(C)C)CC3)n2)s1 [BAA-178] , can you help? 6.00 to 7.30

Looking for the measured pIC50 of Cc1ccc(O)c(C)c1NC(=O)c1cnc(Nc2ccn([C@@H]3CCN(C(=O)Cc4ccccc4F)C3)n2)s1 [BAA-095] , can you help? 6.00 to 7.30

Taken from patent US20260297042A1.
